parameters: species or system Sprague-Dawley rats; details: rat, in vivo, iv, 2 mg/kg
Square brackets hold non-standard residues; d marks the D form. Peptide text beside a SMILES is read from it. * marks the point of attachment. Piperazin2one(3S-Bu,6R-CO) = CCCC[C@@H]1NC[C@H](C(=O)*)NC1=O; X1 = N=C(N)NCCC[C@H]1C(=O)N[C@@H](C(N)=O)CN1*; Nle = CCCC[C@H](N)C(=O)O
assay endpoint: AUC (µM·h)
Kindly answer with a numeric value in µM·h, unit omitted.

Return reported AUC; argument: CCCC[C@@H]1NC[C@H](C(=O)N[C@@H](C)C(=O)N[C@@H](Cc2c[nH]cn2)C(=O)N[C@@H](Cc2ccccc2)C(=O)NCC(=O)NCC(=O)N[C@@H](CCCNC(=N)N)C(=O)N[C@@H](CCCC)C(=O)N[C@@H](CC(=O)O)C(=O)N[C@@H](CCCNC(=N)N)C(=O)N[C@H](C(=O)N[C@@H](CO)C(=O)N[C@@H](C)C(=O)N[C@@H](Cc2ccc(O)cc2)C(=O)N2C[C@H](C(N)=O)NC(=O)[C@@H]2CCCNC(=N)N)[C@@H](C)CC)NC1=O [Construct 1-30] ({Piperazin2one(3S-Bu,6R-CO)}-AHFGGR[Nle]DRISAY-X1) 0.139

Origin of the recorded values: patent US7795221B2
